// provenance: PubChem BioAssay

// values below are reported fold change permeability
# testName: compounds altering in vitro BBB leakiness – cell-based, FITC-avidin fluorescence, HTS, primary screen (AID 1963498); also: test concentration not given here
# conditionNotes: brain endothelial barrier, actives lie on both sides
valueType: fold change permeability

> print(dat)
                                  cpdsmiles  recordednumber
1  CC1(C)CC=C(c2cnc3ccccc3c2)c2cc(C(=O)Nc3ccc(C(=O)O)cc3)ccc21             1.1
2  CCOC(=O)C1=C[C@]2(CC)CCCN3CCc4c(n1c1ccccc41)[C@@H]32             1.8
3  CCCCS(=O)(=O)N[C@@H](Cc1ccc(OCCCCC2CCNCC2)cc1)C(=O)O             1.5
4  Cn1cc(C(=O)OCC2CCN(CCNS(C)(=O)=O)CC2)c2ccccc21               1
5  CC(C)(C)c1ccc(C(=O)CCCN2CCC(OC(c3ccccc3)c3ccccc3)CC2)cc1             1.6
